molecular target: L-lactate dehydrogenase (Plasmodium falciparum (isolate CDC / Honduras)) (UniProt Q27743); assay: PfLDH activity inhibition – cell lysate, 3D7 strain, counter-screen for P. falciparum growth inhibition project (AID 2304);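 also: 0% = vehicle and 100% = reference inhibitor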; conditions: P. falciparum 3D7 crude extract, LDH APAD/NBT absorbance; at 2 µM; hits give high values
Sequence (Q27743 whole entry, looked up): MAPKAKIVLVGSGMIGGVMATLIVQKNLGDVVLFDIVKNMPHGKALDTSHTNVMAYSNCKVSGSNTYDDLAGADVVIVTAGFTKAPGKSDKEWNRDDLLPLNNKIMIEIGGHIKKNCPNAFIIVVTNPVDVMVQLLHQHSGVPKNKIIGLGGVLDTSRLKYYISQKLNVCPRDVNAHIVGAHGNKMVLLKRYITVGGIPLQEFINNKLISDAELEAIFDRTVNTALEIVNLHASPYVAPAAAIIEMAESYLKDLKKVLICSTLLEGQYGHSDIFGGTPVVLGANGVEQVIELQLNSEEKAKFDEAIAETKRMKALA
Recorded inhibition for the following molecules
Give a bare numeral; the unit % is implied.

Would you please look over these solved cases?
> print(dat)
                                   molecule  unit.abbreviation  endpoint.value
1  COc1cc(NCCCNC(=O)c2ccc(Cl)c(Cl)c2)nc2ccccc12                  %               5
2  CO/C(=C\C=C\c1cc2cc(Cl)c(Cl)cc2[nH]1)C(=O)NCCCN1CC(C)N(C)CC1C (centres undefined)                  %              -2
3  O=C(Nc1ccc(Cl)cc1)NC1CCN(CCCCCNC(=O)[C@@H]2C[C@H]2c2ccc(Cl)c(Cl)c2)CC1                  %               4

Prompt line: What inhibition value was documented for this molecule, `CC[C@H](NC(=O)c1c(CN2CCC(N3CCCCC3)CC2)c(-c2ccccc2)nc2cc(O)ccc12)c1ccccc1` ?
Response line: 2

Prompt line: Same for `COc1csc2cc(Br)ccc12`
Response line: -3

Prompt line: Same for `CCCc1ccc(S(=O)(=O)NC2CCN(C(=O)Nc3ccc(I)cc3)CC2)cc1`
Response line: -3

Prompt line: Same for `O=C(Nc1ccc(-c2cccc(-c3nc4ccc(C(F)(F)F)cc4[nH]3)c2)cc1)c1csnn1`
Response line: -2

Prompt line: Same for `CC(C)N(CCOc1ccc2c(c1)N(C(=O)Nc1ccc(Cl)c(Cl)c1)CC2)C(C)C`
Response line: 3

Prompt line: Same for `CN1CCC(N(Cc2ccc(-c3ccc(C(F)(F)F)cc3)cc2)C(=O)Cn2cc(Cc3cnn(C)c3)c(=O)nc2SCc2cccc(F)c2F)CC1`
Response line: 7

----------
test: antimalarial activity against Dd2 strain (AID 2302);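 also: 0% = DMSO untreated growth and 100% = chloroquine plus artemisinin killed control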; settings: P. falciparum Dd2 in RBCs, LDH growth readout, 72 h; at 2 µM; hits give high values
Each entry gets False if its growth inhibition stays under 80%, and True if its growth inhibition is 80% or above.

As a guide, the following entries are already answered.
> print(dat)
                                   molecule  group.label
1  O=C(Nc1cccc(CN2CCCN(Cc3ccc(F)cc3)CC2)c1)c1ccc(Cl)c(Cl)c1        False
2       Cc1cccc2c(N=NC(=S)N(C)C)c(O)[nH]c12        False
3  Cn1nc(C(F)(F)F)c(-c2ccc(Br)cc2)c1NC(=O)Nc1ccc(F)cc1F         True
4  COc1cc(Cc2cnc(N)nc2N)cc(OCCCCCC(=O)O)c1OC        False

Prompt line: Textbook exercise: given the entry `Cc1cc2c(cc1C(F)(F)F)N(C(=O)Nc1cc(C(=O)NCCN(C)C)cc(C(F)(F)F)c1)CC2` , state whether its growth inhibition is greater than or equal to 80%.
Response line: False

Prompt line: Same for `CC(C)c1ccc(NC(=O)N[C@H]2CCN(CCCCCNC(=O)/C=C/c3ccc(Cl)c(Cl)c3)C2)cc1`
Response line: False

Prompt line: Same for `CCOc1ccc2nc(C)cc(NN=Cc3ccc(Cl)cc3)c2c1`
Response line: True

Prompt line: Same for `COc1cc2cc(C(=O)Nc3ccccc3)c(N)nc2cc1OC`
Response line: False

Prompt line: Same for `CCc1cccc(-n2c(=O)c3cccnc3n2CC(=O)NCc2ccccc2Cl)c1`
Response line: False

Prompt line: Same for `CC(C)(C)c1ccc(NC(=O)c2cccc(CN3CCN(Cc4cccc(O)c4)CC3)c2)cc1`
Response line: False

Prompt line: Same for `Cc1ccc(-c2noc(COc3ccccc3C(=O)NC3CCCC3)n2)cc1`
Response line: True

Prompt line: Same for `CN1CCC(N(Cc2ccc(-c3ccc(C(F)(F)F)cc3)cc2)C(=O)Cn2cc(Cc3cnn(C)c3)c(=O)nc2SCc2cccc(F)c2F)CC1`
Response line: True

----------
molecular target: L-lactate dehydrogenase (Plasmodium falciparum (isolate CDC / Honduras)); assay: PfLDH activity inhibition – cell lysate, 3D7 strain, counter-screen for P. falciparum growth inhibition project (AID 2304);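 also: 0% = vehicle and 100% = reference inhibitor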; conditions: P. falciparum 3D7 crude extract, LDH APAD/NBT absorbance; at 2 µM; hits give high values
Observation Type: inhibition (%)
Give a bare numeral; the unit % is implied.

Would you please look over these solved cases?
> print(dat)
                                   compound  unit.abbreviation  endpoint.value
1  O=C(CCN1C(=O)c2ccccc2C1=O)N1CCN(CC=Cc2ccccc2)CC1                  %              -1
2  COc1ccc(Cl)cc1-c1nc(C(=O)NCCN2CCCCC2)c(C)s1                  %              -7
3  O=C(NC1CCN(CCC[C@]2(c3ccc(Cl)c(Cl)c3)CCCN(C(=O)c3ccccc3)C2)CC1)c1ccc(F)cc1                  %              -1
4  CCC(CCON1C(N)=NC(N)=NC1(C)C)c1ccc(Cl)cc1 (stereo not given)                  %               1
5  CC(C)(C)c1ccc(NC(=O)c2ccc(CN3CCCN(Cc4ccc(F)cc4)CC3)cc2)cc1                  %              -1

Prompt line: What inhibition value was documented for this compound, `CCc1nc(N)nc(N)c1-c1ccc(F)cc1` ?
Response line: -2

Prompt line: Same for `COc1cccc(CNC[C@@H](O)[C@H](Cc2ccccc2)NC(=O)c2cc3c4c(c2)c(C(C)C)cn4CCS(=O)(=O)N3C)c1`
Response line: -6

Prompt line: Same for `O=C(c1ccc([N+](=O)[O-])o1)N1CCN(c2nc3c(Cl)cccc3s2)CC1`
Response line: 6

Prompt line: Same for `CN(C)CCNCc1ccc(-c2ccc(-c3nc4ccccc4[nH]3)s2)cc1`
Response line: 1

Prompt line: Same for `COc1cccc2c(NN=Cc3ccccc3Cl)cc(C)nc12`
Response line: -2

Prompt line: Same for `O=C(Nc1cccc(-c2nn3ccccc3c2-c2ccnc(Nc3ccccc3)n2)c1)c1cc(F)ccc1F`
Response line: 0

Prompt line: Same for `CCc1cccc(C)c1-n1nc(-c2cc(C(C)(C)C)oc2C)cc1N`
Response line: 5

----------
molecular target: Calcium-dependent protein kinase 4 (Plasmodium falciparum (isolate 3D7)); test: PfCDPK4 kinase inhibitors, biochemical, TCAMS library (AID 1159588); details: recombinant PfCDPK4, Kinase-Glo ATP depletion luminescence
Entries with a potency or affinity are not part of this list. The source made the active and inactive calls. The limit is not given here; nearly all actives have IC50 up to about 0.91 µM.
Observation Type: outcome

> print(dat)
                                   molecule  endpoint.value
1  COc1ccc(-c2nc(NC(=O)COc3ccc(C(C)=O)cc3)sc2C)cc1        inactive
2  NC(=NCc1ccc(O)cc1)Nc1nc(-c2ccc(OCCCn3ccnc3)cc2)cs1        inactive
3  Cc1[nH]c(C)c(-c2ccc(-c3cc(C(F)(F)F)cc(C(F)(F)F)c3)nc2)c(=O)c1Br        inactive
4  Cc1cc(=O)c(-c2ccc(OCCSc3ccc(C(F)(F)F)cn3)cc2)c(C)[nH]1        inactive
5  O=C1c2ccccc2CN1CCCN1CCC(Oc2ccc(F)cc2)CC1        inactive

Prompt line: What outcome value was documented for this molecule, `CC(C)(C)c1cc(NC(=O)c2ccc(Cl)c([N+](=O)[O-])c2)cc(C(C)(C)C)c1` ?
Response line: inactive

Prompt line: Same for COc1cc(NC(=O)c2cc([N+](=O)[O-])ccc2NC(=O)CNC2CCCC(C)C2C)cc(OC)c1 (centres undefined)
Response line: inactive

Prompt line: Same for `CC(=O)Nc1cc(C(=O)Nc2ccc(C3=NCCN3)cc2)ccc1C(=O)Nc1ccc(C2=NCCN2)cc1`
Response line: inactive

Prompt line: Same for `CCNc1cc(C(=O)N[C@@H](Cc2ccccc2)[C@H](O)CNC(C)(C)CCCC(C)C)c(F)c(N2CCCS2(=O)=O)c1`
Response line: inactive

Prompt line: Same for `COc1ccc(CNC2CCN(C)CC2)cc1-c1ccc(S(=O)(=O)NCCc2ccccn2)c(F)c1`
Response line: inactive

Prompt line: Same for `CC(C)C[C@H](NC(=O)c1cc2ccccc2s1)C(=O)N[C@H]1CCN(Cc2ccc(OCCN3CCNCC3)c3ccccc23)C1`
Response line: inactive

Prompt line: Same for `Nc1nc(N)c2c(CCc3ccc(Cl)c(Cl)c3)cccc2n1`
Response line: inactive

Prompt line: Same for `Cc1cc(N2CCCC2)nc(Nc2ccc(NC(=O)CC(C)C)cc2)n1`
Response line: inactive

Prompt line: Same for `N=C(N)c1cc(Br)cc(NC(=O)Nc2cc(Br)cc(C(=N)N)c2)c1`
Response line: inactive
